# System: Staphylococcus aureus
# Experimental details: In vitro minimum inhibitory concentration for antibacterial activity against Staphylococcus aureus B1 (inducibly MLSb-resistant strain encoded by the erm(C) gene)
# Format: functional
So I've got a bunch of molecules here, and I need their log10 of MIC values.
// stored as log10 of MIC expressed in µg/mL

Req: Answer with reported log10 of MIC of CC[C@H]1OC(=O)[C@H](C)[C@@H](OC(=O)Cc2ccccn2)[C@H](C)[C@@H](OC2O[C@H](C)C[C@H](N(C)C)[C@H]2O)[C@@]2(C)C[C@@H](C)[C@H](OC(=O)O2)[C@H](C)[C@H]2OC(=O)O[C@@]21C (some centres not stated)
Resp: -0.11

Req: Supply recorded log10 of MIC for "CC[C@H]1OC(=O)[C@H](C)[C@@H](OC(=O)Cc2ccc([N+](=O)[O-])cc2)[C@H](C)[C@@H](O[C@@H]2O[C@H](C)C[C@H](N(C)C)[C@H]2O)[C@@](C)(OC)C[C@@H](C)C(=O)[C@H](C)[C@@H](O)[C@]1(C)O" here.
Resp: -0.41

Req: Answer with the recorded log10 of MIC for the molecule listed here: CC[C@H]1OC(=O)[C@H](C)[C@@H](OC(=O)Cc2cccnc2)[C@H](C)[C@@H](OC2O[C@H](C)C[C@H](N(C)C)[C@H]2O)[C@@](C)(O)C[C@@H](C)[C@H](O)[C@H](C)[C@H]2OC(=O)O[C@@]21C (some centres not stated)
Resp: -0.11

Req: Find the measured log10 of MIC of CC[C@H]1OC(=O)[C@H](C)[C@@H](OC(=O)Cc2cccnc2)[C@H](C)[C@@H](OC2O[C@H](C)C[C@H](N(C)C)[C@H]2O)[C@@](C)(OC)C[C@@H](C)C(=O)[C@H](C)[C@H]2NC(=O)O[C@@]21C (some centres not stated) and report it.
Resp: -0.41

Req: Please list log10 of MIC recorded for the molecule CC[C@H]1OC(=O)[C@H](C)[C@@H](OC(=O)Cc2ccccc2OC)[C@H](C)[C@@H](OC2O[C@H](C)C[C@H](N(C)C)[C@H]2O)[C@@](C)(OC)C[C@@H](C)C(=O)[C@H](C)[C@@H](O)[C@]1(C)O (some centres not stated)
Resp: 1.10

Req: For the molecule CC[C@H]1OC(=O)[C@H](C)[C@@H](OC(=O)CCc2cccc(OC)c2)[C@H](C)[C@@H](OC2O[C@H](C)C[C@H](N(C)C)[C@H]2O)[C@@](C)(OC)C[C@@H](C)C(=O)[C@H](C)[C@@H](O)[C@]1(C)O (some centres not stated) , report log10 of MIC.
Resp: 0.50

Req: Supply recorded log10 of MIC for CC[C@H]1OC(=O)[C@H](C)[C@@H](OC(=O)Cc2cccnc2)[C@H](C)[C@@H](OC2O[C@H](C)C[C@H](N(C)C)[C@H]2O)[C@@]2(C)C[C@@H](C)[C@H](OC(=O)O2)[C@H](C)[C@H]2OC(=O)O[C@@]21C (some centres not stated) here.
Resp: -0.70

Req: Determine from records and report log10 of MIC for CC[C@H]1OC(=O)[C@H](C)[C@@H](OC(=O)Cc2cccc([N+](=O)[O-])c2)[C@H](C)[C@@H](OC2O[C@H](C)C[C@H](N(C)C)[C@H]2O)[C@@](C)(OC)C[C@@H](C)C(=O)[C@H](C)[C@@H](O)[C@]1(C)O (some centres not stated)
Resp: -0.11

Req: Please list log10 of MIC recorded for the molecule CC[C@H]1OC(=O)[C@H](C)[C@@H](OC(=O)Cc2cccnc2)[C@H](C)[C@@H](OC2O[C@H](C)C[C@H](N(C)C)[C@H]2O)[C@@](C)(O)C[C@@H](C)[C@@H]2OC(=O)O[C@H]([C@H]2C)[C@]1(C)O (some centres not stated)
Resp: 0.19

Req: Please look at this molecule and report its log10 of MIC: CC[C@H]1OC(=O)[C@H](C)[C@@H](OC(=O)Cc2cccc(OC)c2)[C@H](C)[C@@H](OC2O[C@H](C)C[C@H](N(C)C)[C@H]2O)[C@@](C)(OC)C[C@@H](C)C(=O)[C@H](C)[C@@H](O)[C@]1(C)O (some centres not stated)
Resp: 0.50

Req: Provide measured log10 of MIC value, entry: CC[C@H]1OC(=O)[C@H](C)[C@@H](OC(=O)Cc2cccnc2)[C@H](C)[C@@H](OC2O[C@H](C)C[C@H](N(C)C)[C@H]2O)[C@@](C)(O)C[C@@H](C)[C@H](O)[C@H](C)[C@@H](O)[C@]1(C)O (some centres not stated)
Resp: 0.80

Req: Report measured log10 of MIC; entry is CC[C@H]1OC(=O)[C@H](C)[C@@H](OC(=O)Cc2cccnc2)[C@H](C)[C@@H](OC2O[C@H](C)C[C@H](N(C)C)[C@H]2O)[C@@](C)(O)C[C@@H](C)CN(C)[C@H](C)[C@@H](O)[C@]1(C)O (some centres not stated)
Resp: 0.80

Req: Provide only the value of recorded log10 of MIC for CC[C@H]1OC(=O)[C@H](C)[C@@H](OC(=O)Cc2cccnc2)[C@H](C)[C@@H](OC2O[C@H](C)C[C@H](N(C)C)[C@H]2O)[C@@](C)(O)C[C@@H](C)C(=O)[C@H](C)[C@@H](O)[C@]1(C)O (some centres not stated)
Resp: 0.80

Req: Note log10 of MIC for the molecule shown: CC[C@H]1OC(=O)[C@H](C)[C@@H](OC(=O)Cc2ccccc2[N+](=O)[O-])[C@H](C)[C@@H](OC2O[C@H](C)C[C@H](N(C)C)[C@H]2O)[C@@](C)(OC)C[C@@H](C)C(=O)[C@H](C)[C@@H](O)[C@]1(C)O (some centres not stated)
Resp: -0.11

Req: Quick one: give measured log10 of MIC for CC[C@H]1OC(=O)[C@H](C)[C@@H](OC(=O)Cc2cccnc2)[C@H](C)[C@@H](OC2O[C@H](C)C[C@H](N(C)C)[C@H]2O)[C@@](C)(O)C[C@@H](C)C(=O)[C@H](C)[C@H]2OC(=O)O[C@@]21C (some centres not stated)
Resp: -0.41

Req: Return reported log10 of MIC. Input molecule: CC[C@H]1OC(=O)[C@H](C)[C@@H](OC(=O)Cc2ccncc2)[C@H](C)[C@@H](OC2O[C@H](C)C[C@H](N(C)C)[C@H]2O)[C@@]2(C)C[C@@H](C)[C@H](OC(=O)O2)[C@H](C)[C@H]2OC(=O)O[C@@]21C (some centres not stated)
Resp: -0.41
